Entry source: a protein production outcome set (Wang et al. 2014)

Experiment: label from the status in PepcDB records
resultType: protein production

Before answering, review these 5 worked examples.
MIAAAWIAVTAALYAAARALHRRFPRPWLTPLLVVPGALAAVLLAARVPYPGYMRGGRLLVDLLGPATVAFALPLHRHAGLLRRHAAELCAGILAGCAVAVGSSFLLARALGLGRPLALSLAPRSITTPFAMQVAGDLGGVPALAAVFVILTAVVGLVVGQLLLRWLPLRSAVARGALFGMGAHAAGTAQAMELGRVEGAVAGVVMIVAGLGVLVATPLLRLAL :: failed
MNESAGGRTPVPPAAWVFGLSTLIPFFIASGLFCYGPVAIRKSALLGLLAYSAAMVSYFGGVRTGLEIENPSPRWSVLGISLLFPLAGFGLLLGGLKFEAAWQLSGFLLVFLLQWVWDVTDHEGPSWRPRMRTLMTAGAAISLAFALEQALHM :: failed
MNKRAREWVSVGITWVQDVIYVALGILLTLACAVLLLHGGVNLVGALGRDLDLQVIVQLLDRILLAMMIVELLYTVKVSFRDHLLVPEPFLLVALIAAIRRILVITAEFGAQAPSGDEQFRHVMSELGLLTVLILVLVGSVVILRRRDSAEAPR :: failed
MSFQEIPIIDLQEAFDPATRSKFLEEVRDAIINVGFLLLKNYESLGPTEEDLQSIKQQAIEFFALPAKEKLQCEMLNSPHFLGYTRLANEITASHTDWREQIDLATELPAPKEGEPLYKNIEGPNLWPNPEVIPKFRPTIERFIEKMTALSNVFKDLVAESIGVDPKALNRYFKENQQCKMKLIAYPDVSELDGTKSAALDDTPETNQGVEPHRDSDLITYIYQATEHQNSLQVQNFQGHWITVPNIPGHLVVNNGQTLQAITGGVAKATIHRVLVPEKGTGTRISIPFFQTIDLDSSKGVVDNLPQEVIDLKNERDKKIKDWGVDTGFQFEPDVSKEPIGHAVFRNRIKSHQDVAKKWYPDVLKSVLQEYTH :: not failed
MNREKLMKMANTVRTGGKGTVRRKKKAVHKTNTTDDKRLQSTLKRIGVNSIPAIEEVNIFKDDVVIQFINPKVQASIAANTWVVSGSPQTKKLQDILPQIISQLGPDNMDNLKKLAEQFQKQASGEGNAASATIQEEDDDDVPELVGETFETAAEEKAPAAAASS :: failed

Moving on to the next sequence.
Query block: Endpoint output: protein production of MFTQRKKWLSGVAAGLLMAASVSASAEEKILHIYNWSDYIAPDTLANFQKETGIKVVYDVFDSNEVLEGKLMAGSTGFDLVVPSASFLERQLSAGVFKPLDKSKLPNEKNLDPELLALVSKHDPDNKYAIPYLWATTGIGYNVEKVKAVLGEDAPVNSWDLVLKPENLEKLKSCGVSFLDAPSEIFATVLNYLGKDPNSTLTADYTGSATDLLLKLRPNIRYFHSSQYINDLANGDICVAVGWAGDIMQASNRAKEAKNGVNVAYSIPKEGALAFFDVFAMPTDAKNQDEAYQFLNYLMRPDVIANISNHVFYANANQAATPLVNAEVRDNPGIYPPADVRAKMFTLKVQDPKIDRVITRAWTKVKSGK . Value?
Result block: failed

----------
Assay: label from the status in PepcDB records
resultType: protein production

MTMITFSARLAPFQPETVWTLEAGTLIETRGRIERRFPLSSLTRYSLSLAPDGRRRVLLVVFGRRRLLIPSQSYVGPGRFEDRLAAFSVLARALAAVGADLSPRARFGLARLEARTALTFVMGLLAFGAASTLLFSLTAGMVAVGVDLAARMAFVLILMVAALPWLARPADFDPRDPPADLLP :: failed
MEQYKLVLEGAKQLKWETNEIKDIQDDEIIVKTIAGSISIGAELPQYNGSDVTDPHPFYPRKTGYESYGEVIEVGNQVTHVNVGDKVVSFYGHETIGIVKAHKVIRVPSSIQPKIALLSILSCDAAKGVLKLNPRQDEKVLIIGMGVIGLLACYFLKYYVGIEHVDVVEPNKNRRDFAKKFGTKNIYDSEEKIIETYNYGFECSATNSGFHTLQKALKTNGKICILSDGNIEELTLTANFYQKELQIIGSSDGYDYQKHADWFFEEIGKTPFIEEIFQHEIHYTSLIQCFDELSLGIIKPLKVYVSYE :: failed
MTILVEHFVPDSRVDEKKVIEERDNELVLDGGFVVPKSKETDAFDAPDMNFLGHSFRDYENGESERQQGVEEFYRMQHIHQTYDFVKKMRKEYGKLNKMEMSIWECCELLNNVVDESDPDLDEPQIQHLLQTAEAIRRDYPDEDWLHLTALIHDLGKVLLLPEFGGLPQWAVVGDTFPVGCTFDSANIHHKYFKGNHDINNPKYNTKNGVYTEGCGLDNVLMSWGHDDYMYLVAKKNGTTLPHAGLFIIRYHSFYPLHKAGAYTHLMNDEDRDDLKWLHVFNKYDLYSKSKVLVDVEQVKPYYISLINKYFPAKLKW :: failed
